measured.on: DAT (Homo sapiens, UniProt Q01959)
Construct: expressed in transfected cells
Sequence (Q01959 whole entry): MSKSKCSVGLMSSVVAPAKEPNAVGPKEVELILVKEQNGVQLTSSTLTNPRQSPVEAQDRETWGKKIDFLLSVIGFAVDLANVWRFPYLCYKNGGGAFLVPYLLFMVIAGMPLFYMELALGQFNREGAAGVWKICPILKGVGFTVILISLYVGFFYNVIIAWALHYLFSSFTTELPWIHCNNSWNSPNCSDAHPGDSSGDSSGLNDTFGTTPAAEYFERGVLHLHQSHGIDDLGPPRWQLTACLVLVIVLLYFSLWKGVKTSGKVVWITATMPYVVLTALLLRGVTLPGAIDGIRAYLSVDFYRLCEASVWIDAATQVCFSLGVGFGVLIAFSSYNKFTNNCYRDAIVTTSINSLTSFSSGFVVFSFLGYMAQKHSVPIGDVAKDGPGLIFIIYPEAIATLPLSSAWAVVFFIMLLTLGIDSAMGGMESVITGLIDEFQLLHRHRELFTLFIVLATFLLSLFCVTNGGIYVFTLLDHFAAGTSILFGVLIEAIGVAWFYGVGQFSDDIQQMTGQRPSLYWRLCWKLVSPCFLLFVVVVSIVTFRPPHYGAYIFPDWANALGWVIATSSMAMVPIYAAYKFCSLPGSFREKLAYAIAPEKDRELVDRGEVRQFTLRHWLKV
assay.protocol: cell-based
condition.notes: QSAR data matrix, from IC50 DAT; read-out: pIC50 DAT (converted)
Okay, here is how we bin by IC50: bucket 1 (below 20 µM), bucket 2 (20 µM to below 80 µM), bucket 3 (80 µM or more)

// below: answered compounds
CN[C@@H](C)[C@H](O)c1ccc(CO)cc1 [Dihydro-(R,S)-4-OH-MMC]: bucket 3
C[C@@H](N)[C@H](O)c1ccc(CO)cc1 [Dihydro-(R,R)-4-OH-MC]: bucket 2
C[C@H](N)[C@@H](O)c1ccc(CO)cc1 [Dihydro-(S,S)-4-OH-MC]: bucket 2
Cc1ccc([C@H](O)[C@H](C)N)cc1 [Dihydro-(S,S)-4-MC]: bucket 2
CN[C@@H](C)[C@@H](O)c1ccc(CO)cc1 [Dihydro-(S,S)-4-OH-MMC]: bucket 3

Which bin, given its IC50, does CN[C@H](C)[C@@H](O)c1ccc(CO)cc1 [Dihydro-(S,R)-4-OH-MMC] occupy?
bucket 2

# classify by IC50 band: CN[C@H](C)[C@H](O)c1ccc(CO)cc1 [Dihydro-(R,R)-4-OH-MMC]
bucket 2

Into which bin does this compound go? Cc1ccc([C@@H](O)[C@H](C)N)cc1 [Dihydro-(R,S)-4-MC]
bucket 1

Category lookup for the compound C[C@@H](N)[C@@H](O)c1ccc(CO)cc1 [Dihydro-(S,R)-4-OH-MC]
bucket 3

Which class is correct for the following compound? Cc1ccc([C@H](O)[C@@H](C)N)cc1 [Dihydro-(S,R)-4-MC]
bucket 1

Entry CN[C@H](C)C(=O)c1ccc(C)cc1 [2R-MMC, R-mephedrone, reference compound] belongs to which category?
bucket 1

Form: Item = C[C@H](N)[C@H](O)c1ccc(CO)cc1 [Dihydro-(R,S)-4-OH-MC] ; Class = ?
bucket 3

Kindly state the category for this compound: CN[C@@H](C)C(=O)c1ccc(C)cc1 [S-mephedrone, reference compound]
bucket 1

Record Cc1ccc([C@@H](O)[C@@H](C)N)cc1 [Dihydro-(R,R)-4-MC] — which class?
bucket 1

----------
List of IC50 values.
measured.on: SERT (Homo sapiens, UniProt P31645)
Construct: expressed in transfected cells
Sequence (P31645 whole entry): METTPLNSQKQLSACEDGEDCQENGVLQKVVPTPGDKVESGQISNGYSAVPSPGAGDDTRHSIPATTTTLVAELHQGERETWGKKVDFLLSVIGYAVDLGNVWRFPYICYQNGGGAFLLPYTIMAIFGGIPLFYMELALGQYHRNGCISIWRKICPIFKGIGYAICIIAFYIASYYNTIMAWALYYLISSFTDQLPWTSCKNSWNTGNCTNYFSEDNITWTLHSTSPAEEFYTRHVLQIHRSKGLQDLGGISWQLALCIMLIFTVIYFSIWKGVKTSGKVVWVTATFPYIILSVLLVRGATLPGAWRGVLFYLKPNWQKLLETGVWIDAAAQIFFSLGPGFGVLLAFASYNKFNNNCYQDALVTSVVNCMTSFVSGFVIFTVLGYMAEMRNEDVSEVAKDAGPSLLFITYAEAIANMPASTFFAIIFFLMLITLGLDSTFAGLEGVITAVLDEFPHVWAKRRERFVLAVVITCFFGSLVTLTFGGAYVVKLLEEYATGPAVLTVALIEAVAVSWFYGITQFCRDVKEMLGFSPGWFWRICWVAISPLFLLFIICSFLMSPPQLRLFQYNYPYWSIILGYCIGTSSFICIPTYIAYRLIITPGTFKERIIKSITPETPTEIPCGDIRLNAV
assay.protocol: Uptake-inhibition of [3H]5-HT in HEK293 cells stably expressing human SERT
Assay type: cell-based
condition.notes: mean (95% confidence interval), non-linear regression; read-out: IC50 (µM) SERT
Numeric only. Scale: µM

Reference set, count: 2
C[C@H](N)C(=O)c1ccc(CO)cc1: 40
CN[C@@H](C)[C@H](O)c1ccc(CO)cc1 [Dihydro-(R,S)-4-OH-MMC]: 496

Give its IC50 value. Item: C[C@@H](N)[C@@H](O)c1ccc(CO)cc1 [Dihydro-(S,R)-4-OH-MC]
1160

Dear colleague, I am looking for the recorded IC50 of the following compound: C[C@H](N)[C@H](O)c1ccc(CO)cc1 [Dihydro-(R,S)-4-OH-MC]
383

Any idea what its IC50 is? The compound is CN[C@@H](C)[C@@H](O)c1ccc(CO)cc1 [Dihydro-(S,S)-4-OH-MMC]
1850

I would be grateful if you could share the reported IC50 for C[C@H](N)[C@@H](O)c1ccc(CO)cc1 [Dihydro-(S,S)-4-OH-MC] .
588

State the recorded IC50 for this entry: CN[C@H](C)[C@@H](O)c1ccc(CO)cc1 [Dihydro-(S,R)-4-OH-MMC]
3160

// lookup IC50 for C[C@@H](N)[C@H](O)c1ccc(CO)cc1 [Dihydro-(R,R)-4-OH-MC]
1370

I have this compound here, CN[C@H](C)[C@H](O)c1ccc(CO)cc1 [Dihydro-(R,R)-4-OH-MMC] , and I need its recorded IC50.
1740
